meta.source: the supplement of paper PMC10567573

B1: KCNK9 (parent)
chain: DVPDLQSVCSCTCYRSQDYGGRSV

# Variants of: B1
# ASSAY_SUMMARY: protein stability index of a GFP-peptide fusion (GPS, HEK-293T) (PSI 1-6); higher = more stable;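 also: lentivirally expressed fusions sorted by FACS into six bins by GFP to DsRed ratio, PSI derived from sequencing read proportions per bin multiplied by bin number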
# CONDITION_INFO: c terminus: a fixed tail appended
PARAMETER_MEASURED: protein stability index

DVPDLQSDCSCTCYRSQDYGGRSV	2.8
GVPDLQSVCSCTCYRSQDYGGRSV	1.26
DVPDLQSVCSCTCYRSKDYGGRSV	1.86
DVPDLQSVCACTCYRSQDYGGRSV	1.66
DVPDLQSVCSCTCYRSQDYGVRSV	2.16
DVPDLQSVCSCTCYRSQDYGGCSV	2.38
DVPDLQSVCSCTCYSSQDYGGRSV	2.48
DVPDLQSVCSCTCYRSCDYGGRSV	2.31
LVPDLQSVCSCTCYRSQDYGGRSV	2.59
DVPDLQSVCSCTCYRSQDYGGMSV	2.04
DVPDLQSVCSCTCARSQDYGGRSV	1.91
DVPDLQNVCSCTCYRSQDYGGRSV	1.38
DVPDLQSVCSCTIYRSQDYGGRSV	2.85
DVPDLQSVCSCTDYRSQDYGGRSV	2.12
DVPDLQSVCSCTCYRSQEYGGRSV	1.21
DVPDLQSVCSCTKYRSQDYGGRSV	1.82
DVEDLQSVCSCTCYRSQDYGGRSV	2
DVPDLQSVCLCTCYRSQDYGGRSV	2.39
DVPDLQSVCSHTCYRSQDYGGRSV	2.02
DVPDLQSVCSCPCYRSQDYGGRSV	2.05
DVPDLQSVCSCTCYRSWDYGGRSV	2.44
DVPDLQQVCSCTCYRSQDYGGRSV	2.29
DVPDLQSVCSCTCYESQDYGGRSV	2.52
DVPDLQSVCSKTCYRSQDYGGRSV	3.05
VVPDLQSVCSCTCYRSQDYGGRSV	1.51
DVPDLQSVCSCTCYRSQDYGGKSV	3.06
DVPDLQSVHSCTCYRSQDYGGRSV	1.71
DVPDLTSVCSCTCYRSQDYGGRSV	1.85
DVPDLQSVCSCTCYRSRDYGGRSV	2.58
DVPDLQSVCSCTCYRSQDYGQRSV	1.4
DVPDLQSVCSCTCYVSQDYGGRSV	1.28
DVPDLQDVCSCTCYRSQDYGGRSV	2.2
DVPDLQWVCSCTCYRSQDYGGRSV	2.48
DVPDLQSVCSCTCYRSQDYCGRSV	2.26
DVPDLGSVCSCTCYRSQDYGGRSV	1.63
DVPNLQSVCSCTCYRSQDYGGRSV	2.07
DVTDLQSVCSCTCYRSQDYGGRSV	1.73
DVPDLQSVCKCTCYRSQDYGGRSV	1.76
DVIDLQSVCSCTCYRSQDYGGRSV	2.22
